Molecular target: recombinant human α5β1 integrin (Homo sapiens, UniProt P05556+P08648)
Sequence (P08648 42-894 limits assumed): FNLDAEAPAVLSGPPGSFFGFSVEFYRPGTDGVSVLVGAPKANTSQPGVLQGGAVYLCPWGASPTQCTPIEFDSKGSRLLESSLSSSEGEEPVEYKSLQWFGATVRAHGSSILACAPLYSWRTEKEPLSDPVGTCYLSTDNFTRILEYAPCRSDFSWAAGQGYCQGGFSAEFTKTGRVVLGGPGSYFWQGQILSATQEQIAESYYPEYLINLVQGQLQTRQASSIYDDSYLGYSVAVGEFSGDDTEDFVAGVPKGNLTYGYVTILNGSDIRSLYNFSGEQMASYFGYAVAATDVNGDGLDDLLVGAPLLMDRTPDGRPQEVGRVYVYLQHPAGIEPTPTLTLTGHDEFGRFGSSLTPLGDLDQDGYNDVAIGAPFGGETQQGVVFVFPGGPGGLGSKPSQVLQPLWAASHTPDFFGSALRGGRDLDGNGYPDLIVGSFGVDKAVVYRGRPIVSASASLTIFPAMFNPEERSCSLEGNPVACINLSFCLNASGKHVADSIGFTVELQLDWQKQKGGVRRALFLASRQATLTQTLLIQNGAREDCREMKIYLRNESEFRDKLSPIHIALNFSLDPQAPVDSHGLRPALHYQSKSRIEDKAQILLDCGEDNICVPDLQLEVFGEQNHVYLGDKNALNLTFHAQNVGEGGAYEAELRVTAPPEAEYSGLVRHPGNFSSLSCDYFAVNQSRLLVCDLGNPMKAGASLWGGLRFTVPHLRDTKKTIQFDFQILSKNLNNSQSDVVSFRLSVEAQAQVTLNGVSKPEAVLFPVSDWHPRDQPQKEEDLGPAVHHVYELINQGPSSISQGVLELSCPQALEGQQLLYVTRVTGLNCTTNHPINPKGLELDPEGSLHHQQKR
Sequence (P08648 895-1049 partner limits assumed): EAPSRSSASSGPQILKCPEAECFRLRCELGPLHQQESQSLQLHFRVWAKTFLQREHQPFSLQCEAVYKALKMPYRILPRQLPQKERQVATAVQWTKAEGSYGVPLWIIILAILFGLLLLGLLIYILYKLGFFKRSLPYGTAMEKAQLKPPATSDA
Sequence (P05556 21-798): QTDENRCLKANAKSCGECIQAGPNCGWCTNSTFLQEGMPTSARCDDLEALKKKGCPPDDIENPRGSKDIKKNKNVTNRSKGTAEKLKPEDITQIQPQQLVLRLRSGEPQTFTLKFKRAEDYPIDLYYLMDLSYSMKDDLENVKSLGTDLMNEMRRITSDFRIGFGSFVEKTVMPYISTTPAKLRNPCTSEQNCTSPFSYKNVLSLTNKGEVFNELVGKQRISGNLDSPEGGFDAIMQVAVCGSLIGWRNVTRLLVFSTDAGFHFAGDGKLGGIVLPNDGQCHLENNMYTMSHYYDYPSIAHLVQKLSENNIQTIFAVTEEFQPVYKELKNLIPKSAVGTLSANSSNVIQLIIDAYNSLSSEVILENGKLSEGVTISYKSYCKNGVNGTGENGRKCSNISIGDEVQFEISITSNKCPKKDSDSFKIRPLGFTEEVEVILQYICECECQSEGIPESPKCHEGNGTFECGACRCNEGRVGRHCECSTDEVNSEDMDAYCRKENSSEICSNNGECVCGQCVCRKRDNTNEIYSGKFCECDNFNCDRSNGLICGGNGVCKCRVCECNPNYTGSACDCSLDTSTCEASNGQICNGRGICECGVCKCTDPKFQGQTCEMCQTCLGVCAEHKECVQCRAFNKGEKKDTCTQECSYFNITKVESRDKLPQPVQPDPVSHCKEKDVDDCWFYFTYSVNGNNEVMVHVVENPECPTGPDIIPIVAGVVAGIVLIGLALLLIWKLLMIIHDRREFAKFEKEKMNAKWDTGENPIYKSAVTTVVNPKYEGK
Assay: In vitro binding assay (a): inhibition of binding of α5β1 integrin to a fragment of human fibronectin (Fn9-10), Origen electrochemiluminescence
Conditions: geometric mean of the measured IC50 values; n given below each value
From the text: The assay determined the ability of compounds to inhibit binding of α5β1 integrin to a cognate ligand, a fragment of human fibronectin. The assay used Origen technology (IGEN International) to measure the compound activity. […] The ruthenium-labeled tag emits an electrochemiluminescence signal upon stimulation which is detected by the Origen reader. […]
What pIC50 was measured for each of the following?
pIC50 field: float, defined as -log10 of concentration (mol/L).

Consider CNc1cccc(CCCc2ccc(C[C@H](NC(=O)c3c(Cl)cncc3Cl)C(=O)O)s2)n1 [Example 1.2] . Its measured pIC50 is 9.00

The compound listed as CNc1cccc(CCCc2ccc(C[C@H](NC(=O)c3c(C)noc3C)C(=O)O)s2)n1 [Example 1.1] has a reported pIC50 of 8.40

Data point: O=C(N[C@@H](Cc1ccc(CCCc2ccc3c(n2)NCCC3)s1)C(=O)O)c1c(Cl)cncc1Cl [Example 3] ; pIC50 = 9.52

Where do the numbers come from? From patent US20080255183A1.
